target.of.assay: COX-2 (Homo sapiens, UniProt P35354)
Construct: purchased Cayman Chemical 560131
Sequence (P35354 18-604): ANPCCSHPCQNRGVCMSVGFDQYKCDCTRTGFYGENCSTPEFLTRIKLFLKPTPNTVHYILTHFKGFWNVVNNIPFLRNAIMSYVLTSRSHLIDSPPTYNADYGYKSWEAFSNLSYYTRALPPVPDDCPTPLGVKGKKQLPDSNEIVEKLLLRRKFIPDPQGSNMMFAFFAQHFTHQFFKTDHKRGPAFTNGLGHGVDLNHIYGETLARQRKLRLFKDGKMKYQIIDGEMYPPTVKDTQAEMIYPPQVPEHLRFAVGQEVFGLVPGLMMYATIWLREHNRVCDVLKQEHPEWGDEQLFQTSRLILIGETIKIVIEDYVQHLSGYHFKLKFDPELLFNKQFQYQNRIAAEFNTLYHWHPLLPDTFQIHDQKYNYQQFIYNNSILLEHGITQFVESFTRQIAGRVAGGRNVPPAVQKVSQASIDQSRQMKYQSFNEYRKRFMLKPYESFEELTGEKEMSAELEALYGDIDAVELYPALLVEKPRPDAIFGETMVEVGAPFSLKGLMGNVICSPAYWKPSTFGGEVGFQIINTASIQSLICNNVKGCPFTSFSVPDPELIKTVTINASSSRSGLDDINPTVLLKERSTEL
experimental.protocol: COX inhibitor screening assay kit, COX-2
Type: biochemical
condition.description: mean ± SD; read-out: COX-2 IC50

molecule: COc1cc(/C=C/C(=O)COC(=O)/C=C/c2ccc(O)c(OC)c2)ccc1O [Calebin-A, calebin-A]
IC50, µM: 784

====

Tested on: Sup-T1 cells
experimental.protocol: Cellular growth inhibition assay (MTS)
Assay type: cell-based
condition.description: Homo sapiens; Sup-T1 growth inhibition, MTS; mean ± SD; read-out: Viability IC50
Procedure: The CellTiter 96® AQueous One Solution Cell Proliferation Assay (MTS, Promega, Madison, WI, USA) was used to measure proliferation inhibition of cultured cells. Briefly, Sup-T1 cells were cultured in RPMI 1640 supplemented with 10% FBS and 1% penicillin/streptomycin at 37 °C and 5% CO2. […] The MTS reagent was added and incubated for 4 h. […] To the best of our knowledge no other study has measured the effects of THC on Sup-T1 cells. […]
pIC50: −log10 of the molar value.

molecule: COc1cc(/C=C/C(=O)COC(=O)/C=C/c2ccc(O)c(OC)c2)ccc1O
target.of.assay: Sup-T1 cells
pIC50: 4.58

Entry source: paper PMC5750651
